settings: in THF, 298.2 K

| moleculeSmiles | solubility (mole fraction) |
| --- | --- |
| CC1(C)O[C@H]2CC(=O)OC[C@]23[C@H]2CC[C@@]4(C)[C@H](c5ccoc5)OC(=O)[C@H]5O[C@]54[C@]2(C)C(=O)C[C@@H]13 | 0.00309 |

----------
settings: in n-butyl acetate, 288.2 K

| moleculeSmiles | solubility (mole fraction) |
| --- | --- |
| CC1(C)O[C@H]2CC(=O)OC[C@]23[C@H]2CC[C@@]4(C)[C@H](c5ccoc5)OC(=O)[C@H]5O[C@]54[C@]2(C)C(=O)C[C@@H]13 | 0.000349 |

----------
settings: in n-butanol, 308.2 K

| moleculeSmiles | solubility (mole fraction) |
| --- | --- |
| CC1(C)O[C@H]2CC(=O)OC[C@]23[C@H]2CC[C@@]4(C)[C@H](c5ccoc5)OC(=O)[C@H]5O[C@]54[C@]2(C)C(=O)C[C@@H]13 | 3.54e-05 |

----------
conditions: in isopropanol, 313.2 K

| moleculeSmiles | solubility (mole fraction) |
| --- | --- |
| CC1(C)O[C@H]2CC(=O)OC[C@]23[C@H]2CC[C@@]4(C)[C@H](c5ccoc5)OC(=O)[C@H]5O[C@]54[C@]2(C)C(=O)C[C@@H]13 | 3.03e-05 |

----------
details: in acetonitrile, 288.2 K
measurementLabel: solubility (mole fraction)

| moleculeSmiles | resultValue |
| --- | --- |
| CC1(C)O[C@H]2CC(=O)OC[C@]23[C@H]2CC[C@@]4(C)[C@H](c5ccoc5)OC(=O)[C@H]5O[C@]54[C@]2(C)C(=O)C[C@@H]13 | 0.00314 |

----------
details: in THF, 323.2 K

| moleculeSmiles | solubility (mole fraction) |
| --- | --- |
| CC1(C)O[C@H]2CC(=O)OC[C@]23[C@H]2CC[C@@]4(C)[C@H](c5ccoc5)OC(=O)[C@H]5O[C@]54[C@]2(C)C(=O)C[C@@H]13 | 0.00486 |

----------
conditions: in isopropanol, 293.2 K

| moleculeSmiles | solubility (mole fraction) |
| --- | --- |
| CC1(C)O[C@H]2CC(=O)OC[C@]23[C@H]2CC[C@@]4(C)[C@H](c5ccoc5)OC(=O)[C@H]5O[C@]54[C@]2(C)C(=O)C[C@@H]13 | 1.56e-05 |

----------
details: in n-butyl acetate, 313.2 K

| moleculeSmiles | solubility (mole fraction) |
| --- | --- |
| CC1(C)O[C@H]2CC(=O)OC[C@]23[C@H]2CC[C@@]4(C)[C@H](c5ccoc5)OC(=O)[C@H]5O[C@]54[C@]2(C)C(=O)C[C@@H]13 | 0.000616 |

----------
details: in n-butanol, 288.2 K

| moleculeSmiles | solubility (mole fraction) |
| --- | --- |
| CC1(C)O[C@H]2CC(=O)OC[C@]23[C@H]2CC[C@@]4(C)[C@H](c5ccoc5)OC(=O)[C@H]5O[C@]54[C@]2(C)C(=O)C[C@@H]13 | 1.94e-05 |

----------
conditions: in n-butyl acetate, 298.2 K

| moleculeSmiles | solubility (mole fraction) |
| --- | --- |
| CC1(C)O[C@H]2CC(=O)OC[C@]23[C@H]2CC[C@@]4(C)[C@H](c5ccoc5)OC(=O)[C@H]5O[C@]54[C@]2(C)C(=O)C[C@@H]13 | 0.000413 |

----------
settings: in ethanol, 298.2 K

| moleculeSmiles | solubility (mole fraction) |
| --- | --- |
| CC1(C)O[C@H]2CC(=O)OC[C@]23[C@H]2CC[C@@]4(C)[C@H](c5ccoc5)OC(=O)[C@H]5O[C@]54[C@]2(C)C(=O)C[C@@H]13 | 3.53e-05 |

----------
conditions: in chloroform, 283.2 K

| moleculeSmiles | solubility (mole fraction) |
| --- | --- |
| CC1(C)O[C@H]2CC(=O)OC[C@]23[C@H]2CC[C@@]4(C)[C@H](c5ccoc5)OC(=O)[C@H]5O[C@]54[C@]2(C)C(=O)C[C@@H]13 | 0.00425 |
